pEC50 values by entry
Target: C. elegans Slo-1a (Caenorhabditis elegans, UniProt Q95V25)
Sequence (Q95V25 whole entry): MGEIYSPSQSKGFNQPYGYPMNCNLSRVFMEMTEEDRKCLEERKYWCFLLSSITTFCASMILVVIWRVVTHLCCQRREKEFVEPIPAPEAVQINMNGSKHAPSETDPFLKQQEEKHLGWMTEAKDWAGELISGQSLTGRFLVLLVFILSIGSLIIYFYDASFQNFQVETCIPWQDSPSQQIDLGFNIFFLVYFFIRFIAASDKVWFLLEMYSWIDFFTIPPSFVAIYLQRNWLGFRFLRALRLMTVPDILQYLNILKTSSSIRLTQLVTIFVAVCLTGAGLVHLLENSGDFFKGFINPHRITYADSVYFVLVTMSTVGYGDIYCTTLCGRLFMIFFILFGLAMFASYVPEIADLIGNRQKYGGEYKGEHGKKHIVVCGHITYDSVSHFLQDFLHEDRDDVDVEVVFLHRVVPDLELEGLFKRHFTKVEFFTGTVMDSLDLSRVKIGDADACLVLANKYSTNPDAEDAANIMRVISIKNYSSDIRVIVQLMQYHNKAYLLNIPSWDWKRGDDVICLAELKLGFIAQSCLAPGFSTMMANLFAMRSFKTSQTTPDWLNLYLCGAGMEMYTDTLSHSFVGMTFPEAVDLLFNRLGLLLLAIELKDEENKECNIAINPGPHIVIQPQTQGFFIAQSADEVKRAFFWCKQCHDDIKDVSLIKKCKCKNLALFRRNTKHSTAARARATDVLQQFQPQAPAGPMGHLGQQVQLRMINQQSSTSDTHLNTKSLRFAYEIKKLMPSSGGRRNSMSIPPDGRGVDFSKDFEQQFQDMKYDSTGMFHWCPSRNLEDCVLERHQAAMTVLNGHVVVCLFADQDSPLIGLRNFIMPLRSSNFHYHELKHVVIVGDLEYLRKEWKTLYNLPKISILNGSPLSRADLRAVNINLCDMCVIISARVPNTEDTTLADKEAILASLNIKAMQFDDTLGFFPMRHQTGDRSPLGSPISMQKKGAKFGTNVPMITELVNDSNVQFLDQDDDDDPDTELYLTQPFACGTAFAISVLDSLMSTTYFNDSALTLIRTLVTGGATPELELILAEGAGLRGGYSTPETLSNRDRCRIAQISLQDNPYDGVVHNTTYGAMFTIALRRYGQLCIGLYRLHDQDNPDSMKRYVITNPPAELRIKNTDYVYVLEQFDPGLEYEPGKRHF
Test: In vitro assay 1: C. elegans Slo-1a, action at a recombinant C. elegans CHO cell line (membrane potential measurement)
pEC50: −log10 of the molar value.
METRIC: pEC50

> print(dat)
                            molecule.smiles                       experimental.target  assay.value
1  COCc1cccc(-c2c(C)nn3c(C(C)C)c(C(=O)N[C@H]4CCc5ccccc54)cnc23)c1  C. elegans Slo-1a (Caenorhabditis elegans, UniProt Q95V25)         8.20
2  CC(C)c1c(C(=O)N[C@H]2CCc3ccccc32)cnc2c(-c3cncc(F)c3)c(C(F)(F)F)nn12  C. elegans Slo-1a (Caenorhabditis elegans, UniProt Q95V25)         5.50
3  Cc1nn2c(C3CC3)c(C(=O)N[C@H]3CCOc4ccccc43)cnc2c1-c1cccc(F)c1F  C. elegans Slo-1a (Caenorhabditis elegans, UniProt Q95V25)         8.90
4  Cc1nn2c(C(C)C)c(C(=O)N[C@H]3CCOc4ccccc43)cnc2c1-c1cc(Cl)cc(C(F)(F)F)c1  C. elegans Slo-1a (Caenorhabditis elegans, UniProt Q95V25)         8.30
5  Cc1nn2c(C(C)C)c(C(=O)N[C@H]3CCc4ccccc43)cnc2c1-c1cnn(C(C)C)c1  C. elegans Slo-1a (Caenorhabditis elegans, UniProt Q95V25)         7.70
6  Cc1nn2c(C(C)C)c(C(=O)N[C@H]3CCOc4ccccc43)cnc2c1-c1ccc2c(c1)OCO2  C. elegans Slo-1a (Caenorhabditis elegans, UniProt Q95V25)         7.50
7  COc1ccc(-c2c(C)nn3c(C(C)C)c(C(=O)N[C@H]4CCOc5ccccc54)cnc23)cc1OC  C. elegans Slo-1a (Caenorhabditis elegans, UniProt Q95V25)         7.10
